- system: UniProt Q96GD4
- Sequence (Q96GD4 whole entry): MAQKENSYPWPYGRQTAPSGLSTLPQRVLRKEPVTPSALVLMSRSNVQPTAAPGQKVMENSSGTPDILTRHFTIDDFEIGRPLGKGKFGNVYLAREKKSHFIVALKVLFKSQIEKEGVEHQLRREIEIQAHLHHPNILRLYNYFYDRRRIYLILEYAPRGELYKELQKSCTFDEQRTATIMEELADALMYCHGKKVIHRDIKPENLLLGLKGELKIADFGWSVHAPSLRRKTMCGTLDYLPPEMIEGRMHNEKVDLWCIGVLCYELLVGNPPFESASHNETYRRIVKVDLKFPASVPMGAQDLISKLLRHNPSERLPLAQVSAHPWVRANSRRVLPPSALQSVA

{"compound": "CCc1ccccc1C(C(=O)Nc1ccc2[nH]nc(-c3cccc(S(N)(=O)=O)c3)c2c1)N(C)C (racemic)", "IC50": "480 nM"}

====

- system: Aurora kinase A (Homo sapiens, UniProt O14965)
- Sequence (O14965 whole entry): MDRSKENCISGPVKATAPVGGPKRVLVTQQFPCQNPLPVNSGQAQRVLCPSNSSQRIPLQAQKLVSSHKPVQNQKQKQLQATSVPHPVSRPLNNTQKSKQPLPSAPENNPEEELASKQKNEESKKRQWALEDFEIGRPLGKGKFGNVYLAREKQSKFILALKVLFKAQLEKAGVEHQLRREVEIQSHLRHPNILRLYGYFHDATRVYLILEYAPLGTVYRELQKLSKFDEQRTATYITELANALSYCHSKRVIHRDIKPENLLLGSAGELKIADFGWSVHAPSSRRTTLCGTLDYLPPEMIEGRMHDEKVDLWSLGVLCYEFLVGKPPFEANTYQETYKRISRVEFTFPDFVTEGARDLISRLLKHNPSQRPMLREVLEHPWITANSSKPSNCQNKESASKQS
pIC50: −log10 of the molar value.
experimental-endpoint: pIC50

{"compound": "NS(=O)(=O)c1cccc(-c2n[nH]c3ccc(NC(=O)C(c4ccsc4)N4CCCC4)cc23)c1 (racemic)", "experimental-endpoint": "pIC50", "endpoint-value": 6.05}
{"compound": "CCc1ccccc1C(C(=O)Nc1ccc2[nH]nc(-c3cccc(S(N)(=O)=O)c3)c2c1)N(C)C (racemic)", "experimental-endpoint": "pIC50", "endpoint-value": 6.40}

====

- system: Serine/threonine-protein kinase PLK2 (Homo sapiens)
- Sequence (Q9NYY3 whole entry): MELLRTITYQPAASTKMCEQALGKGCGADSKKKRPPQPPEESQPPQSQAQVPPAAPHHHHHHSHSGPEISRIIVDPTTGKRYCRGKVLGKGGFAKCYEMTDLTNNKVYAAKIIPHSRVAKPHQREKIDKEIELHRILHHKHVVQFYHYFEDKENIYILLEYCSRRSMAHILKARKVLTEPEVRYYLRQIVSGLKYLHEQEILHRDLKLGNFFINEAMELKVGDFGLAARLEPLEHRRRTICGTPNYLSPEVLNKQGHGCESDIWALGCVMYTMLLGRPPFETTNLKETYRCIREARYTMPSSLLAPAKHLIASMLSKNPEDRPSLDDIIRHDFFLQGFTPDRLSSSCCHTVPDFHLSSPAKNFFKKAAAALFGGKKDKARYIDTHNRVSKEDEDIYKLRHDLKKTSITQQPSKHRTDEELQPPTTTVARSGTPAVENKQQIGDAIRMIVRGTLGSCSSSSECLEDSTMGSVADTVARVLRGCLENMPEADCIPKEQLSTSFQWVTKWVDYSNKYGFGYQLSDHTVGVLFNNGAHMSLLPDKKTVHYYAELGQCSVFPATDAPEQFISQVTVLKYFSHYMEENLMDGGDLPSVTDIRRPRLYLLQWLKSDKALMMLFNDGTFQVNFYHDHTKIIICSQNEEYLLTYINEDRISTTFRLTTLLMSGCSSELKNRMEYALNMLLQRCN

{"molecule": "NS(=O)(=O)c1cccc(-c2n[nH]c3ccc(NC(=O)C(c4ccsc4)N4CCCC4)cc23)c1 (racemic)", "system": "Serine/threonine-protein kinase PLK2 (Homo sapiens)", "IC50": "10 µM"}

====

- system: Serine/threonine-protein kinase PLK1 (Homo sapiens)
- Sequence (P53350 whole entry): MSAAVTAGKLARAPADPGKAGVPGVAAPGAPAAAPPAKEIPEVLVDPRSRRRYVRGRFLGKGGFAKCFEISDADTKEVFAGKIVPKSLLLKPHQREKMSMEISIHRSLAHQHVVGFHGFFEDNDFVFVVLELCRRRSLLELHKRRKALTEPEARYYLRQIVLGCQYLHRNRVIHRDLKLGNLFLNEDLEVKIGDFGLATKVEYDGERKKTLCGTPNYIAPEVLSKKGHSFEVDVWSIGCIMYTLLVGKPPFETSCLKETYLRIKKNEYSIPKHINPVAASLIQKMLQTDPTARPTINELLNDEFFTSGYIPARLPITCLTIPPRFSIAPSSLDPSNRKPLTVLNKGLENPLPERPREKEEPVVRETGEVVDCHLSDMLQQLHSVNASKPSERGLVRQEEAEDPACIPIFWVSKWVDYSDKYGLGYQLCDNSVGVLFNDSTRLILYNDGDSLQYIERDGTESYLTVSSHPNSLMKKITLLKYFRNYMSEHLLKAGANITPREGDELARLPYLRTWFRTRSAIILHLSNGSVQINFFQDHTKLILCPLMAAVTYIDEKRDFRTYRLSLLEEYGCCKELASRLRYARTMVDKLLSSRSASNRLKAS

{"compound": "CCc1ccccc1C(C(=O)Nc1ccc2[nH]nc(-c3cccc(S(N)(=O)=O)c3)c2c1)N(C)C (racemic)", "IC50": "> 50 µM"}

====

- system: Dual specificity protein kinase TTK (Homo sapiens, UniProt P33981)
- assay-name: Inhibition of SUMO-tagged human TTK (1-275 residues) compound pre-incubated for 15 mins prior ATP addition by MBP-based assay

{"compound": "CCc1cccc(CC)c1NC(=O)N(C)c1ccc2[nH]nc(-c3cccc(S(N)(=O)=O)c3)c2c1", "lt-gt-eq": ">", "IC50 / nM": 50000}
{"compound": "Cc1ccccc1CC(=O)Nc1ccc2[nH]nc(-c3cccc(S(N)(=O)=O)c3)c2c1", "lt-gt-eq": "=", "IC50 / nM": 25}
{"compound": "CCC(C(=O)Nc1ccc2[nH]nc(-c3cccc(S(N)(=O)=O)c3)c2c1)c1ccccc1 (racemic)", "lt-gt-eq": "=", "IC50 / nM": 24}
{"compound": "CC(=O)Nc1ccc2c(-c3cccc(S(N)(=O)=O)c3)n[nH]c2c1", "lt-gt-eq": "=", "IC50 / nM": 18000}
{"compound": "CC(=O)Nc1ccc2[nH]nc(-c3cccc(S(N)(=O)=O)c3)c2c1", "lt-gt-eq": "=", "IC50 / nM": 640}

====

- assay-name: Permeability of the compound at pH 7.4 by PAMPA
- Assay type: ADME
- details: read-out: permeability
experimental-endpoint: Papp (×10⁻⁶ cm/s)

{"molecule": "CCc1cccc(CC)c1NC(=O)Nc1ccc2[nH]nc(-c3cccc(S(N)(=O)=O)c3)c2c1", "units": "×10⁻⁶ cm/s", "lt-gt-eq": "<", "endpoint-value": 21}
{"molecule": "CCc1ccccc1C(C(=O)Nc1ccc2[nH]nc(-c3cccc(S(N)(=O)=O)c3)c2c1)N(C)C (racemic)", "units": "×10⁻⁶ cm/s", "lt-gt-eq": "=", "endpoint-value": 19}
{"molecule": "NS(=O)(=O)c1cccc(-c2n[nH]c3ccc(NC(=O)C(c4ccsc4)N4CCCC4)cc23)c1 (racemic)", "units": "×10⁻⁶ cm/s", "lt-gt-eq": "=", "endpoint-value": 4.2}

====

- system: Dual specificity protein kinase TTK (Homo sapiens)
- Sequence (P33981 whole entry): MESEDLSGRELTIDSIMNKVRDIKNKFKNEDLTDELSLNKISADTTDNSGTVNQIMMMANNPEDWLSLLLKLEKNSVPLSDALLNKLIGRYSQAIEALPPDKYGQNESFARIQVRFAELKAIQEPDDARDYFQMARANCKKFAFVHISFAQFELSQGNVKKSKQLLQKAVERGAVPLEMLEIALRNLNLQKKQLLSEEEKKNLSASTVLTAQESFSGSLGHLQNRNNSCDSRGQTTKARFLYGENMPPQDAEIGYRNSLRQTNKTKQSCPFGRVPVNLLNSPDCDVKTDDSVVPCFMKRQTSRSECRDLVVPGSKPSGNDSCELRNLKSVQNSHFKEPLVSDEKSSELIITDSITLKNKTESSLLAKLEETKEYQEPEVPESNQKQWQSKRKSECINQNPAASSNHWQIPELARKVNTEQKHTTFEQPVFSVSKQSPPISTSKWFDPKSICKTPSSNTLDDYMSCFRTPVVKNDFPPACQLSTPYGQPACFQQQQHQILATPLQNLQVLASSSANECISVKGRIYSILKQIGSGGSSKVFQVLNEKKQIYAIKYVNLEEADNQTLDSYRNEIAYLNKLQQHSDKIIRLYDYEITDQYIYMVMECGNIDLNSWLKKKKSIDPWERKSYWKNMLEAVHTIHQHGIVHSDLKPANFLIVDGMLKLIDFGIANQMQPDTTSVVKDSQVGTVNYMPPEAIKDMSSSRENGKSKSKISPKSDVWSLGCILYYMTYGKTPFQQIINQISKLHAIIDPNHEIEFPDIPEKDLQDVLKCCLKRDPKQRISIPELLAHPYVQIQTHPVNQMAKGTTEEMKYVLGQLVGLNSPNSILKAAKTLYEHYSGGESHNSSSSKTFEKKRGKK
- assay-name: Inhibition of GST-fused full length human TTK compound pre-incubated for 15 mins prior ATP addition by MBP-based assay
experimental-endpoint: log10(IC50) (log10 of the value in µM)

{"given-smiles": "NC(=O)c1cccc(-c2n[nH]c3cccc(Cl)c23)c1", "endpoint-value": 1.23}
{"given-smiles": "NS(=O)(=O)c1cccc(-c2n[nH]c3ccccc23)c1", "endpoint-value": 0.41}
{"given-smiles": "N#Cc1ccc2c(/C=C/c3ccncc3)n[nH]c2c1", "endpoint-value": 0.70}
{"given-smiles": "NS(=O)(=O)c1ccc(-c2n[nH]c3cccc(Cl)c23)cc1", "endpoint-value": 1.26}
{"given-smiles": "Oc1c2ccccc2c2c3c(cccc13)N=N2", "endpoint-value": 0.40}
{"given-smiles": "c1ccc(-c2[nH]nc3ccccc23)cc1", "endpoint-value": 1.08}
{"given-smiles": "O=Cc1ccc2c(-c3cccnc3)n[nH]c2c1", "endpoint-value": 1.08}
{"given-smiles": "COc1cc(N2CCC(O)CC2)ccc1Nc1nc(Nc2ccccc2S(=O)(=O)C(C)C)c2cc[nH]c2n1", "endpoint-value": -0.43}
{"given-smiles": "NS(=O)(=O)c1cccc(-c2n[nH]c3cccc(Cl)c23)c1", "endpoint-value": 0.26}

====

- system: Dual specificity protein kinase TTK (Homo sapiens, UniProt P33981)
- assay-name: Inhibition of SUMO-tagged human TTK (1-275 residues) compound pre-incubated for 15 mins prior ATP addition by MBP-based assay
pIC50: −log10 of the molar value.
Each entry below lists one item and its recorded pIC50 value.
experimental-endpoint: pIC50

{"compound": "NS(=O)(=O)c1cccc(-c2n[nH]c3ccc(NC(=O)Cc4ccccn4)cc23)c1", "endpoint-value": 7.05}
{"compound": "CCc1cccc(CC)c1CNC(=O)c1ccc2[nH]nc(-c3cccc(S(N)(=O)=O)c3)c2c1", "endpoint-value": 7.10}
{"compound": "NS(=O)(=O)c1cccc(-c2n[nH]c3ccc(NC(=O)C(c4ccccc4)C4CCCCC4)cc23)c1 (racemic)", "endpoint-value": 7.21}
{"compound": "CN(C)[C@H](C(=O)Nc1ccc2[nH]nc(-c3cccc(S(N)(=O)=O)c3)c2c1)c1ccccc1", "endpoint-value": 7.96}
{"compound": "NS(=O)(=O)c1cccc(-c2n[nH]c3ccc(NS(=O)(=O)Nc4ccccc4)cc23)c1", "endpoint-value": 6.15}

====

Each entry below lists one item and its recorded pIC50 value.
- system: Dual specificity protein kinase TTK (Homo sapiens)
- Sequence (P33981 whole entry): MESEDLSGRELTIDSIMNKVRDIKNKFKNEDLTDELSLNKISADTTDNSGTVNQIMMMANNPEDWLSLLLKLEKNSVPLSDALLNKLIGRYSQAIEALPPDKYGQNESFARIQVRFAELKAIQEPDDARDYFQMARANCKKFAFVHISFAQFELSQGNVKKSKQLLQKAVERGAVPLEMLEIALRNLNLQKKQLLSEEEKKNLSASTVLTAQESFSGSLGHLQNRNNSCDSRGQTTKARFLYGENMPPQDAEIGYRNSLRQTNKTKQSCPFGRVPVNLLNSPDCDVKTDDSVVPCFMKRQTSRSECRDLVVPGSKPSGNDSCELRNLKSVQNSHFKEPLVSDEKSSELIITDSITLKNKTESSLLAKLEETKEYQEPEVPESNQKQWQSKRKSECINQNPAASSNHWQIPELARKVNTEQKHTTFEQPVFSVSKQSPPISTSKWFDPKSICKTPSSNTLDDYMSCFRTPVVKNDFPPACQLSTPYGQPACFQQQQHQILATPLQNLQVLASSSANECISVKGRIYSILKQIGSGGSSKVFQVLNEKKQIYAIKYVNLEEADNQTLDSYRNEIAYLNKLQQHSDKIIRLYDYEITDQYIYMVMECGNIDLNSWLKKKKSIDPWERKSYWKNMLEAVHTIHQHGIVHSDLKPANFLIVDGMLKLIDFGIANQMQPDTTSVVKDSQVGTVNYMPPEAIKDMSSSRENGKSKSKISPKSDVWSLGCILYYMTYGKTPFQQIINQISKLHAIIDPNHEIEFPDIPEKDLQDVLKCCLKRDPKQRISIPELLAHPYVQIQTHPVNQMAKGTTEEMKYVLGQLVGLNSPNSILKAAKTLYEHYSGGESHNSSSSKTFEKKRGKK
- assay-name: Inhibition of SUMO-tagged human TTK (1-275 residues) compound pre-incubated for 15 mins prior ATP addition by MBP-based assay
pIC50: −log10 of the molar value.

{"compound": "CN(Cc1ccccc1)C(=O)c1ccc2[nH]nc(-c3cccc(S(N)(=O)=O)c3)c2c1", "lt-gt-eq": "=", "pIC50": 6.60}
{"compound": "NS(=O)(=O)c1cccc(-c2n[nH]c3ccc(NC(=O)C(c4ccccc4)N4CCCCC4)cc23)c1 (racemic)", "lt-gt-eq": "=", "pIC50": 8.00}
{"compound": "NS(=O)(=O)c1cccc(-c2n[nH]c3ccc(C(=O)NCc4ccccc4)cc23)c1", "lt-gt-eq": "=", "pIC50": 7.05}
{"compound": "CN(C)[C@@H](C(=O)Nc1ccc2[nH]nc(-c3cccc(S(N)(=O)=O)c3)c2c1)c1ccccc1", "lt-gt-eq": "=", "pIC50": 7.82}
{"compound": "CC(C)C(C(=O)Nc1ccc2[nH]nc(-c3cccc(S(N)(=O)=O)c3)c2c1)c1ccccc1 (racemic)", "lt-gt-eq": "=", "pIC50": 7.34}
{"compound": "NS(=O)(=O)c1cccc(-c2n[nH]c3ccc(NC(=O)C(c4ccsc4)N4CCCC4)cc23)c1 (racemic)", "lt-gt-eq": "=", "pIC50": 8.54}
{"compound": "NS(=O)(=O)c1cccc(-c2n[nH]c3ccc(CNC(=O)c4ccccc4)cc23)c1", "lt-gt-eq": "=", "pIC50": 6.26}
{"compound": "NS(=O)(=O)c1cccc(-c2n[nH]c3ccccc23)c1", "lt-gt-eq": "=", "pIC50": 5.80}
{"compound": "NS(=O)(=O)c1cccc(-c2n[nH]c3ccc(NC(=O)CCc4ccccc4)cc23)c1", "lt-gt-eq": "=", "pIC50": 6.01}
{"compound": "NS(=O)(=O)c1cccc(-c2n[nH]c3ccc(NC(=O)Nc4ccccc4)cc23)c1", "lt-gt-eq": "=", "pIC50": 6.41}
{"compound": "COC(C(=O)Nc1ccc2[nH]nc(-c3cccc(S(N)(=O)=O)c3)c2c1)c1ccccc1 (racemic)", "lt-gt-eq": "=", "pIC50": 7.59}
{"compound": "NS(=O)(=O)c1cccc(-c2n[nH]c3ccc(NC(=O)Cc4cccs4)cc23)c1", "lt-gt-eq": "=", "pIC50": 7.80}
{"compound": "NS(=O)(=O)c1cccc(-c2n[nH]c3ccc(NC(=O)c4cccs4)cc23)c1", "lt-gt-eq": "=", "pIC50": 6.55}
{"compound": "NS(=O)(=O)c1cccc(-c2n[nH]c3ccc(C(=O)NC(c4ccccc4)C4CC4)cc23)c1 (racemic)", "lt-gt-eq": "=", "pIC50": 7.80}
{"compound": "Cc1ccccc1CNC(=O)c1ccc2[nH]nc(-c3cccc(S(N)(=O)=O)c3)c2c1", "lt-gt-eq": "=", "pIC50": 7.74}
{"compound": "NS(=O)(=O)c1cccc(-c2n[nH]c3ccc(C(=O)NC4(c5ccccc5)CC4)cc23)c1", "lt-gt-eq": "=", "pIC50": 7.46}
{"compound": "CCc1cccc(CC)c1NS(=O)(=O)Nc1ccc2[nH]nc(-c3cccc(S(N)(=O)=O)c3)c2c1", "lt-gt-eq": "=", "pIC50": 5.59}
{"compound": "Cc1ccccc1NC(=O)Cc1ccc2[nH]nc(-c3cccc(S(N)(=O)=O)c3)c2c1", "lt-gt-eq": "<", "pIC50": 5.30}

Where do the numbers come from? From ChEMBL document CHEMBL3352261.
